Can you tell me IC50 for the items I'm about to list?
- study.target: D(1A) dopamine receptor (Homo sapiens)
- Sequence (P21728 whole entry): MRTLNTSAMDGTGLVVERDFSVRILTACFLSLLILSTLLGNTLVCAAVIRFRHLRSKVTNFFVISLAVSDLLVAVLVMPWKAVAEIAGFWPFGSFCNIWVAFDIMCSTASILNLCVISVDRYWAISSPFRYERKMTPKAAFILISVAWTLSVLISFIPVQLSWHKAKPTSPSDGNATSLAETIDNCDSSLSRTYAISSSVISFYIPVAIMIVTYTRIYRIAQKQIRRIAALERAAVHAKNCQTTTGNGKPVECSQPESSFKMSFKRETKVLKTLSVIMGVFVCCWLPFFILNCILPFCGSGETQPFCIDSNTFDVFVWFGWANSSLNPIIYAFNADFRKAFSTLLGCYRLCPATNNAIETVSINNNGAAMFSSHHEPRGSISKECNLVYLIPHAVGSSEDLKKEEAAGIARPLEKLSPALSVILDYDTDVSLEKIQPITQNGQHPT
Answers are plain numbers, in µM.

Answered examples (4):
>  <chemical.string>
O=C(CCCc1ccccc1)N1CCN(CCCC(c2ccc(F)cc2)c2ccc(F)cc2)CC1

>  <IC50 / µM>
2.75

$$$$
>  <chemical.string>
O=C(OCc1cc2c(cc1Cl)OCO2)N1CCC(n2c(O)nc3ccccc32)CC1

>  <IC50 / µM>
7.58

$$$$
>  <chemical.string>
N#Cc1ccc(CCOC(=O)N2CCN(CCCC(c3ccc(F)cc3)c3ccc(F)cc3)CC2)cc1

>  <IC50 / µM>
1.12

$$$$
>  <chemical.string>
N#Cc1ccc(CCOC(=O)NC2CCN(CCCC(c3ccc(F)cc3)c3ccc(F)cc3)CC2)cc1

>  <IC50 / µM>
0.376

$$$$

Alright, here's another molecule for you.
// field: IC50; key: CCOc1ccc(CCNC(=O)N2CCN(CCCC(c3ccc(F)cc3)c3ccc(F)cc3)CC2)cc1 ; value = 0.967

----------
Below are pIC50 values measured for Sodium-dependent dopamine transporter (Homo sapiens).
One number for each entry, as −log10 of the molar value.

>  <chemical.string>
CCOc1ccc(CCNC(=O)N2CCN(CCCC(c3ccc(F)cc3)c3ccc(F)cc3)CC2)cc1

>  <study.target>
Sodium-dependent dopamine transporter (Homo sapiens)
Sequence (Q01959 whole entry): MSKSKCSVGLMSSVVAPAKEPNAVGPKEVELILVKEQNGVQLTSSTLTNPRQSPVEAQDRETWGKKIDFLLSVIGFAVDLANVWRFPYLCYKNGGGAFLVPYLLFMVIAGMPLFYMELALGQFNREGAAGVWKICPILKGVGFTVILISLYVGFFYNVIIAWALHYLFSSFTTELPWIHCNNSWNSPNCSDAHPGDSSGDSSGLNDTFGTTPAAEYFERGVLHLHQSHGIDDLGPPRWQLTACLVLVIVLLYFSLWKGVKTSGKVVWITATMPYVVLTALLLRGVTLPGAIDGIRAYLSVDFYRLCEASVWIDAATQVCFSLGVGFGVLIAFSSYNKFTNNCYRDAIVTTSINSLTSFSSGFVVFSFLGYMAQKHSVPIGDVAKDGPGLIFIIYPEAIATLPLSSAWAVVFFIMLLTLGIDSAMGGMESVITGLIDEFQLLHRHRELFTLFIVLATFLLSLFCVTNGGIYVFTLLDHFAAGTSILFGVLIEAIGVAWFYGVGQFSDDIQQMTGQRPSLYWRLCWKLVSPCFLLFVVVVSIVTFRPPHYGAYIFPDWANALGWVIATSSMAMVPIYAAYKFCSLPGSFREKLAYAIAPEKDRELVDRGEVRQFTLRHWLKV

>  <pIC50>
6.00

$$$$
>  <chemical.string>
N#Cc1ccc(CCOC(=O)N2CCN(CCCC(c3ccc(F)cc3)c3ccc(F)cc3)CC2)cc1

>  <study.target>
Sodium-dependent dopamine transporter (Homo sapiens)

>  <pIC50>
6.00

$$$$
>  <chemical.string>
O=C(CCCc1ccccc1)N1CCN(CCCC(c2ccc(F)cc2)c2ccc(F)cc2)CC1

>  <study.target>
Sodium-dependent dopamine transporter (Homo sapiens)

>  <pIC50>
6.02

$$$$

Batch of 4 compounds: report pIC50 for each.
1. O=C(OCCc1ccc(F)cc1)N1CCN(CCCC(c2ccc(F)cc2)c2ccc(F)cc2)CC1
2. O=c1[nH]c2ccccc2n(C2CCN(Cc3cc4c(cc3Cl)OCO4)CC2)c1=O
3. O=C(CCc1ccc(F)cc1)N1CCN(CCCC(c2ccc(F)cc2)c2ccc(F)cc2)CC1
4. N#Cc1ccc(CCOC(=O)NC2CCN(CCCC(c3ccc(F)cc3)c3ccc(F)cc3)CC2)cc1

5.78
5.82
5.89
6.11

----------
Exercise: state measured pIC50 for each of the molecules provided.
- study.target: UniProt P47898
- Sequence (P47898 whole entry): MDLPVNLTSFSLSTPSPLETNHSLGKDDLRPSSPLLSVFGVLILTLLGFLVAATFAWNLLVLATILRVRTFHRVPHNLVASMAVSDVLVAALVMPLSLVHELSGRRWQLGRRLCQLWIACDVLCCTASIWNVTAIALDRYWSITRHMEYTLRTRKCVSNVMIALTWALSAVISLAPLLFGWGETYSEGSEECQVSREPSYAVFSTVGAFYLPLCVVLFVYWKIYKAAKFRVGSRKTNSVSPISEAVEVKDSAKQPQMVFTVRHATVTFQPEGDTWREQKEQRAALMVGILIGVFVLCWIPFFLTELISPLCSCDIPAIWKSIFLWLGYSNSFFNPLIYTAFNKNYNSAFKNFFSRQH
Numbers only, as −log10 of the molar value.

>  <chemical.string>
O=C(CCCc1ccccc1)N1CCN(CCCC(c2ccc(F)cc2)c2ccc(F)cc2)CC1

>  <pIC50>
5.26

$$$$

Entry N#Cc1ccc(CCOC(=O)N2CCN(CCCC(c3ccc(F)cc3)c3ccc(F)cc3)CC2)cc1 , pIC50 reported as 5.47

----------
- study.target: Sodium-dependent dopamine transporter (Homo sapiens)
measurement.kind: pIC50
Answers are plain numbers, as −log10 of the molar value.

O=C(OCc1cccc(Oc2ccccc2)c1)N1CCC2(CC1)C(=O)NCN2c1ccccc1 has a reported pIC50 of 5.53

----------
- study.target: UniProt:P21918
- Sequence (P21918 whole entry): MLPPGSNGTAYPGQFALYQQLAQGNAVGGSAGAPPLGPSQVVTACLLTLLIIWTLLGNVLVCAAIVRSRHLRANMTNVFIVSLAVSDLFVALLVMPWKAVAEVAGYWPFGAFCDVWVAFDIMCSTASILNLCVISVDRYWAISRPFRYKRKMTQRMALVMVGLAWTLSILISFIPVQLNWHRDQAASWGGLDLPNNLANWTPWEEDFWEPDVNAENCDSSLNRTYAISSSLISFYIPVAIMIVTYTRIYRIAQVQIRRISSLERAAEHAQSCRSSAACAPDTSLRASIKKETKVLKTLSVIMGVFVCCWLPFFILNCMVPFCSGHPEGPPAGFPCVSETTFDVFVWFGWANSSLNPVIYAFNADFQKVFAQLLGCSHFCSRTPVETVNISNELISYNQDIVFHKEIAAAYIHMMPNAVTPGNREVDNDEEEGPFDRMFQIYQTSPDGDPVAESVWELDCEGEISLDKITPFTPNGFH
pIC50: −log10 of the molar value.
Cut-off 6 on pIC50, inclusive. At or above means yes (1); below means no (0).

Answered cases to consult:
>  <chemical.string>
N#Cc1ccc(CCOC(=O)NC2CCN(CCCC(c3ccc(F)cc3)c3ccc(F)cc3)CC2)cc1

>  <study.target>
UniProt:P21918

>  <assigned.label>
yes (1)

$$$$
>  <chemical.string>
O=C(CCCc1ccccc1)N1CCN(CCCC(c2ccc(F)cc2)c2ccc(F)cc2)CC1

>  <study.target>
UniProt:P21918

>  <assigned.label>
no (0)

$$$$

Dear colleague, could you confirm whether O=C(OCc1cc2c(cc1Cl)OCO2)N1CCC(n2c(O)nc3ccccc32)CC1 has pIC50 at or above 6? no (0)

Reported pIC50 reaches at least 6 for O=C(OCCc1ccc(F)cc1)N1CCN(CCCC(c2ccc(F)cc2)c2ccc(F)cc2)CC1 ? no (0)

Is reported pIC50 greater than or equal to 6 here: O=C(CCc1ccc(F)cc1)N1CCN(CCCC(c2ccc(F)cc2)c2ccc(F)cc2)CC1 no (0)

Values compiled from ChEMBL document CHEMBL1134625.
